# subject-of-test: cytochrome bd-I (Escherichia coli, UniProt P0ABJ9)
# Construct: oxygen consumption activity of E. coli EC958 cytochrome bd-I-only membranes; endogenous in cells
# Sequence (P0ABK2 whole entry): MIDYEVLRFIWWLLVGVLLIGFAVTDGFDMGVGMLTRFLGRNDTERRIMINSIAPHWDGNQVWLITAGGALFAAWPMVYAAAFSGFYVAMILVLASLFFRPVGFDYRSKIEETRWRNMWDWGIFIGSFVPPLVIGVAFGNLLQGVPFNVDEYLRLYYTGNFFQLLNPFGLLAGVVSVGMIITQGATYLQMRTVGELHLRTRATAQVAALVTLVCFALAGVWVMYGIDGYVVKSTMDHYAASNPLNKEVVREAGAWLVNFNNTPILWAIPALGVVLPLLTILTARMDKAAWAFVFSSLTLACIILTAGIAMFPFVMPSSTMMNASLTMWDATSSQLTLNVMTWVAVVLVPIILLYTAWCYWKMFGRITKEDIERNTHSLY
# Sequence (A5A618 whole entry, further chain): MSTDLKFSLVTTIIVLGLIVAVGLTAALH
# Sequence (P0ABJ9 whole entry): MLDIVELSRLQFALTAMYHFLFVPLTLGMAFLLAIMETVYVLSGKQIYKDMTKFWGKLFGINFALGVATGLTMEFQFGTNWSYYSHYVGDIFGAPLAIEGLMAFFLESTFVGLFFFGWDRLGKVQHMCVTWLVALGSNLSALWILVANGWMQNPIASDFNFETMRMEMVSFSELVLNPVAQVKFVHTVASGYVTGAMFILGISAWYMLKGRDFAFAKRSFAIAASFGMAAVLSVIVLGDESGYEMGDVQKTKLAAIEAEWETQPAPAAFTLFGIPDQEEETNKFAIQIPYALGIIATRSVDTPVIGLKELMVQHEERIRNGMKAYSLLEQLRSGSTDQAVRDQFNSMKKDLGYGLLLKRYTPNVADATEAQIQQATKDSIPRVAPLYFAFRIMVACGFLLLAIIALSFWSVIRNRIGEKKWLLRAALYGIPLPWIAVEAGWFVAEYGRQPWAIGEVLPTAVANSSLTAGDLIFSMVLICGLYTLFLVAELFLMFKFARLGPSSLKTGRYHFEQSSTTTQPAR
# Sequence (P56100 whole entry, further chain): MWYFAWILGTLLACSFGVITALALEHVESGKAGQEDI
# assay-comment: Oxygen consumption assay with isolated E. coli EC958 cytochrome bd-I only membranes
reported-property: IC50
Note: state the figure and append the unit.

Hey, can you go through the list below and give me IC50 for every item?
1. C[C@H]1[C@H](C)CC[C@]2(C(=O)O)CC[C@]3(C)C(=CC[C@@H]4[C@@]5(C)C[C@@H](O)[C@H](O)[C@@](C)(CO)[C@@H]5[C@H](O)C[C@]43C)[C@H]12 [MA, Madecassic acid]
2. CC(=O)OCC1(C)C(OC(C)=O)C(OC(C)=O)CC2(C)C1C(O)CC1(C)C2CC=C2C3C(C)C(C)CCC3(C(=O)NCCCCCCCCCCN)CCC21C (stereo not shown) [MA-3]
3. CC(=O)OCC1(C)C(OC(C)=O)C(OC(C)=O)CC2(C)C1C(O)CC1(C)C2CC=C2C3C(C)C(C)CCC3(C(=O)O)CCC21C (stereo not shown) [MA-2]
4. CC1CCC2(C(=O)NCCCCCCCCCCN)CCC3(C)C(=CCC4C5(C)CC(O)C(O)C(C)(CO)C5C(O)CC43C)C2C1C (stereo not shown) [MA-4]

["34 µM", "10 µM", "15 µM", "79 µM"]
